- experiment_description: Moisture sorption/desorption analysis
- Format: physicochemical
- condition_context: after equilibration at about 5% RH, 25 C; Tables 2C-2F (values fit change relative to initial weight)
property_name: Weight Change (%)

compound="N#Cc1ccccc1Cn1c(N2CCC[C@@H](N)C2)ncc(F)c1=O [Form C]" readout_number=−0.873
compound="N#Cc1ccccc1Cn1c(N2CCC[C@@H](N)C2)ncc(F)c1=O [Form E]" readout_number=−0.352
compound="N#Cc1ccccc1Cn1c(N2CCC[C@@H](N)C2)ncc(F)c1=O [amorphous Form 1]" readout_number=−0.054
compound="N#Cc1ccccc1Cn1c(N2CCC[C@@H](N)C2)ncc(F)c1=O [amorphous Form 2]" readout_number=0.156

* * *

- experiment_description: Solubility estimates in different solvents
- Assay type: physicochemical
- condition_context: organic solvent or mixture, thermodynamic from solid; methanol, ambient temperature, visual estimate
property_name: solubility

molecule="N#Cc1ccccc1Cn1c(N2CCC[C@@H](N)C2)ncc(F)c1=O [Form A]" property_name=solubility result="≥ 16 mg/mL"

* * *

- experiment_description: Solubility estimates in different solvents
- Type: physicochemical
- condition_context: organic solvent or mixture, thermodynamic from solid; tetrahydrofuran, ambient temperature, visual estimate
property_name: solubility

compound="N#Cc1ccccc1Cn1c(N2CCC[C@@H](N)C2)ncc(F)c1=O [Form A]" result="< 3000 µg/mL"

* * *

- experiment_description: Solubility estimates in different solvents
- Assay type: physicochemical
- condition_context: organic solvent or mixture, thermodynamic from solid; hexanes, ambient temperature, visual estimate
property_name: solubility

compound="N#Cc1ccccc1Cn1c(N2CCC[C@@H](N)C2)ncc(F)c1=O [Form A]" property_name=solubility result="< 3000 µg/mL"

* * *

- experiment_description: Solubility estimates in different solvents
- Assay type: physicochemical
- condition_context: organic solvent or mixture, thermodynamic from solid; dichloromethane, ambient temperature, visual estimate
property_name: solubility

molecule="N#Cc1ccccc1Cn1c(N2CCC[C@@H](N)C2)ncc(F)c1=O [Form A]" property_name=solubility result="< 3000 µg/mL"

* * *

- experiment_description: Solubility estimates in different solvents
- Format: physicochemical
- condition_context: organic solvent or mixture, thermodynamic from solid; diisopropyl ether, ambient temperature, visual estimate
property_name: solubility

compound="N#Cc1ccccc1Cn1c(N2CCC[C@@H](N)C2)ncc(F)c1=O [Form A]" property_name=solubility result="< 3000 µg/mL"

* * *

- experiment_description: Solubility estimates in different solvents
- Assay type: physicochemical
- condition_context: organic solvent or mixture, thermodynamic from solid; isopropyl acetate, ambient temperature, visual estimate
property_name: solubility

compound="N#Cc1ccccc1Cn1c(N2CCC[C@@H](N)C2)ncc(F)c1=O [Form A]" property_name=solubility result="< 3000 µg/mL"

* * *

- experiment_description: Moisture sorption/desorption analysis
- Assay type: physicochemical
- condition_context: after 5%-95%-5% RH cycle
property_name: solid form of post moisture sorption/desorption sample by XRPD

molecule="N#Cc1ccccc1Cn1c(N2CCC[C@@H](N)C2)ncc(F)c1=O [Form E]" result="form C"
molecule="N#Cc1ccccc1Cn1c(N2CCC[C@@H](N)C2)ncc(F)c1=O [Form B]" result="form C"
molecule="N#Cc1ccccc1Cn1c(N2CCC[C@@H](N)C2)ncc(F)c1=O [Form C]" result="form C"

* * *

- experiment_description: Solubility estimates in different solvents
- Format: physicochemical
- condition_context: organic solvent or mixture, thermodynamic from solid; ethyl acetate, ambient temperature, visual estimate
property_name: solubility

molecule="N#Cc1ccccc1Cn1c(N2CCC[C@@H](N)C2)ncc(F)c1=O [Form A]" property_name=solubility result="< 3000 µg/mL"
